- TESTED ON: Human immunodeficiency virus type 1 protease (Human immunodeficiency virus 1)
- METHOD SUMMARY: Anti-HIV-1 activity against mutant HIV-1 in MT-4 cells (mutation selected with ritonavir)
- Format: functional, cell-based
- CONDITION: MT4
Lab note: cut-off is 0.7 µM. Strictly less in ED50 is criterion met. Exactly 0.7 µM or more is criterion not met.

Worked examples follow.
>  <COMPOUND>
O=C(NC1c2ccccc2C[C@H]1O)[C@H](OCc1ccccc1F)[C@H](O)[C@@H](O)[C@@H](OCc1ccccc1F)C(=O)N[C@H]1c2ccccc2C[C@H]1O (stereo partly specified)

>  <ANSWER LABEL>
criterion met

$$$$
>  <COMPOUND>
CNC(=O)[C@@H](NC(=O)[C@H](OCc1c(F)cccc1F)[C@H](O)[C@@H](O)[C@@H](OCc1c(F)cccc1F)C(=O)N[C@H](C(=O)NC)C(C)C)C(C)C

>  <ANSWER LABEL>
criterion not met

$$$$
>  <COMPOUND>
O=C(NC1c2ccccc2C[C@H]1O)[C@H](OCc1ccccc1)[C@H](O)[C@@H](O)[C@@H](OCc1ccccc1)C(=O)N[C@H]1c2ccccc2C[C@H]1O (stereo partly specified)

>  <ANSWER LABEL>
criterion not met

$$$$
>  <COMPOUND>
O=C(NC1c2ccccc2C[C@H]1O)[C@H](OCc1cccc(F)c1)[C@H](O)[C@@H](O)[C@@H](OCc1cccc(F)c1)C(=O)N[C@H]1c2ccccc2C[C@H]1O (stereo partly specified)

>  <ANSWER LABEL>
criterion met

$$$$

Let us examine a further case.
Task item: Item O=C(NC1c2ccccc2C[C@H]1O)[C@H](OCc1cccc(F)c1F)[C@H](O)[C@@H](O)[C@@H](OCc1cccc(F)c1F)C(=O)N[C@H]1c2ccccc2C[C@H]1O (stereo partly specified) : ED50 beneath 0.7 µM, strictly?
Reply: criterion not met

Reference source: ChEMBL document CHEMBL1134445
